All figures here come from PubChem BioAssay (NCI).

# Tested on: MDA-MB-231 breast
# protocolDescription: NCI tumour cell line growth inhibition, 48 h
Measured TGI, listed per entry for reference.
parameter: TGI (µM)

CCOC(=O)c1c(N2CCCC2)[nH]c(=O)c(C(c2ccc(Cl)c([N+](=O)[O-])c2)c2c(O)c(C(=O)OCC)c(N3CCCC3)[nH]c2=O)c1O ... 50.5
CCOc1ccc(C(C[N+](=O)[O-])Sc2ccccc2N)cc1 (stereo unspecified) ... 7.84
CC(=O)Nc1cc2cc(NS(=O)(=O)c3ccc(Cl)c(Cl)c3)ccc2oc1=O ... 46.2

====

# System: LOX IMVI melanoma
# protocolDescription: NCI tumour cell line growth inhibition, 48 h
parameter: GI50

O=C(Nc1cc(Cl)ccc1O)c1ccccc1Nc1ccnc(C(F)(F)F)c1 ... 3.2 µM
[N-]=[N+]=NCCCn1c2c(c3ccc([N+](=O)[O-])cc3c1=O)C(=O)c1cc(-c3ccccc3)ccc1-2 ... > 100 µM
Clc1ccc2c(c1)N(C1CCCN(Cc3ccccc3)C1)c1ccccc1S2 (stereo not drawn) ... 6 µM
